- Tested on: lymphocyte cells
- test.name: 4CmC-induced adenosine in swine lymphocyte cells, nucleosides assay (Example 4)
- Assay type: cell-based
- test.settings: Sus scrofa, Lymphocyte, read-out: estimated EC50 of 4CmC for ADO formation, MHS swine cells
- Protocol: Isolation of lymphocytes from whole blood: Lymphocyte cells were isolated from whole blood by Ficoll-Hypaque density gradient centrifugation technique (see Boyum A., Scand. J. Clip. Lab. 97:77-89 (1968)). Isolated lymphocyte cells were dispensed into 3-volume normal Hanks' balanced salt solution (HBSS) and centrifuged (10 minutes at 1000 RPM). The pellet was re-suspended in HBSS to lyse contaminating erythrocytes and spun. The later step was repeated one more time. […]
measured.endpoint: EC50
Give me the value, and tack the unit on after it.

Quick one: EC50 for `Cc1cc(O)ccc1Cl` ? 550 µM

Values compiled from patent US8846330B2.
